Quick reference: Potency of the listed items.
# METHOD_DESCRIPTION: qHTS Assay for Modulators of miRNAs and/or Inhibitors of miR-21; further: potency means the concentration at half of the fitted maximal effect; nearly all actives have a fitted effect of over 55% in size
# COND: HeLa miR-21-FLuc reporter, luciferase luminescence, 48 h; actives lower the signal
# From the text: MLSCN Grant: 1 R21 NS059478-01 Assay Provider: Qihong Huang, The Wistar Institute NCGC Assay Overview: MicroRNAs (miRNAs) are endogenously encoded small (~20-25 nucleotides), nonprotein-coding RNAs that are involved in post-transcriptional repression of target messenger RNAs (mRNAs) (Le and Hannon, 2004). […]
Among all 340,000 compounds or so, about 3,300 (0.97%) were called active. Another 9% or so got no clear call; they are omitted. The list shows a part of the results.

Examples with answers:
• CCC(C)C(=O)N1CCc2cc(-c3csc(N)n3)ccc21 (configuration not stated) = 1.65 µM (active)
• NNc1ccc(Cl)c(C(=O)O)c1 = 6.56 µM (active)
• O=C(NCCCN1CCOCC1)c1cc(-c2ccccc2)on1 = 18.5 µM (active)
• NS(=O)(=O)c1ccc(N/N=C/C=C/c2ccccc2[N+](=O)[O-])cc1 = 3.29 µM (active)
• CCNc1nc(NCC)nc(N/N=C/c2ccc(O)c(O)c2)n1 = 18.5 µM (active)

*Q* # Potency lookup, item CCn1c(NCc2ccc3c(c2)OCO3)nc2ccccc21
*A* 16.5 µM (active)

*Q* Likewise for Cc1ccc2nc(-c3ccc(C)c(NC(=O)CSc4ccc(Cl)cc4)c3)oc2c1 ?
*A* 2.07 µM (active)

*Q* Likewise for Cc1ccc2oc(-c3ccc(C)c(NC(=O)/C=C/c4ccc(Cl)cc4)c3)nc2c1 ?
*A* 3.69 µM (active)
